target: human IRAK4 (Homo sapiens (Human)); experiment: IRAK4 kinase inhibition, Transcreener fluorescence polarization ADP assay; details: recombinant full-length His6-IRAK4; 125 uM ATP; 90 min; Ki computed using ATP Km 642 uM
Sequence (Q9NWZ3 whole entry): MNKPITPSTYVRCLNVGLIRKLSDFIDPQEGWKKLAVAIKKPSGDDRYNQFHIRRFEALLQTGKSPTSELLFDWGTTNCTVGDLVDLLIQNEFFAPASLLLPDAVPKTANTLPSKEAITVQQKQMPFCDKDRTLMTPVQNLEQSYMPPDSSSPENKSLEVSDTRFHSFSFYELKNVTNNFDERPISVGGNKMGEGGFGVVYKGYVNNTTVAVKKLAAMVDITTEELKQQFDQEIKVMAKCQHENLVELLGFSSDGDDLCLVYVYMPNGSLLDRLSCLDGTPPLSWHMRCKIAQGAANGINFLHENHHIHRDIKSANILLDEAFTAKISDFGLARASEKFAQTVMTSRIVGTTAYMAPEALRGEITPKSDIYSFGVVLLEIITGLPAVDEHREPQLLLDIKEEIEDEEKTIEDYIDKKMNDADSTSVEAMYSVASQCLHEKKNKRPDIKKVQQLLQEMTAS
value_type: Ki (nM)

A: CC1(C)Cc2cc(NC(=O)c3cnn4cccnc34)c(N3CCC(C(F)(F)F)CC3)cc2O1
B: C[C@@]1(O)CCCN(c2cc3c(cc2NC(=O)c2cnn4cccnc24)C[C@](C)(CO)O3)CC1
C: CC1(C)Cc2cc(NC(=O)c3cnn4cc(C5CC5)cnc34)c(N3CCOCC3)cc2O1
D: CC1(C)Cc2cc(NC(=O)c3cnn4cccnc34)c(N3CCn4ccnc4C3)cc2O1
Query :: List the items above again, this time ordered by increasing Ki. Order the labels as requested and list them.
Result :: B, A, C, D
